# targetUnderTest: pWT PDZ2 K392M (human) (UniProt Q12959)
# Sequence (Q12959 311-407, change not shown): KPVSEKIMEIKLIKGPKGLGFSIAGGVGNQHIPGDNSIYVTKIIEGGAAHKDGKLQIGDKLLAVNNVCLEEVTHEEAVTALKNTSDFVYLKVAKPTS
# assayName: stopped-flow spectroscopy
Ends that are not written are not given here.
recordedMetric: koff (s⁻¹)

binder	recordedMetric	dataValue
Ac-PGKETQL [PGKETQL peptide (C-terminus of SO1C1_HUMAN)]	koff	48

a = SARSTDV [SARSTDV peptide (C-terminus of anoctamin-9)]
b = Ac-TSRETDL [TSRETDL peptide (C-terminus of potassium voltage-gated channel subfamily A member 5, Kv1.5)]
c = Ac-EKKHTLL [EKKHTLL peptide (C-terminus of E9PN86_HUMAN, partial transcript of EIF3M_HUMAN)]
Query :: Order these by koff, descending, and give the full ranking. Order the labels as requested and list them.
Result :: c, b, a
(c: 157 s⁻¹, b: 62 s⁻¹, a: 25 s⁻¹)
